Values were extracted from PubChem BioAssay AID617.

system: E. coli BW25113 ΔtolC growth inhibition, OD615; experiment: growth inhibitors of E. coli tolC mutant, dose response, strain BW25113 ΔtolC::kan (AID 617);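 also: growth read after 20 h at 37 °C with compound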
quantity_kind: IC50

Illustrative cases are given below, each with its answer.
- compound: "O=C(c1cc2nc(-c3ccco3)cc(C(F)(F)F)n2n1)N1CCN(c2ccccc2)CC1"
  measured_on: "E. coli BW25113 ΔtolC growth inhibition, OD615"
  experimental_result: "10.3 µM"
- compound: "CN1C(=O)C2(OCC(COc3ccc(Cl)cc3)O2)c2ccccc21 (stereo not given)"
  measured_on: "E. coli BW25113 ΔtolC growth inhibition, OD615"
  experimental_result: "11.1 µM"
- compound: "COc1ccc(NC(=O)N2CCCC(c3nc(-c4ccc(C(C)C)cc4)no3)C2)cc1 (stereo not given)"
  measured_on: "E. coli BW25113 ΔtolC growth inhibition, OD615"
  experimental_result: "16.9 µM"

Name the recorded IC50 of the item c1ccc(CN(Cc2ccco2)C(c2ccncc2)c2nnnn2C2CCCC2)cc1 (stereo not given) in your answer.
13.2 µM

Name the recorded IC50 of the item `CCOC(=O)c1nnn(-c2nonc2-n2cccc2)c1CN1CCC(C)CC1` in your answer.
23.4 µM
